Target: Rac-1 (Homo sapiens, UniProt P63000)
Experiment: Ras GTP binding domain inhibition assay (labeled-GTP competition, cell-free)
Design: made in house
Settings: with SOS, read-out: Rac-1 + SOS: % inh.
Reported inhibition at 20 µM values are given for each entry in this list.

// inhibition at 20 µM lookup, key: CO[C@@H]1CC[C@H](Nc2nc(-c3nccn3C)nc3sc(-c4ccn(C(C)C)n4)c(-c4ccccc4)c23)C1 [Example 4]
26 to 50%

----------
Biological target: KRas wild type (Homo sapiens, UniProt P01116)
Assay: Ras GTP binding domain inhibition assay (labeled-GTP competition, cell-free)
Design: made in house
Settings: without SOS, read-out: KRas wild type: % inh.
Catalogue of inhibition at 20 µM readings, one per entry.

Known inhibition at 20 µM results, listed for orientation:
COMPOUND	inhibition at 20 µM
Cc1c(-c2ccn(C(C)C)n2)sc2nc(-c3nccn3C)nc(NCc3ncc[nH]3)c12	26 to 50%
O=C(Nc1ccccn1)c1nc(O)c2scc(-c3ccccn3)c2n1	1 to 25%
COCCn1ccnc1-c1nc(N[C@@H]2CC[C@H](OC)C2)c2ccsc2n1 (racemic)	76 to 100%
Cc1c(-c2ccn(C(C)C)n2)sc2nc(-c3nccn3C)nc(NCCc3ncc[nH]3)c12	26 to 50%
O=C(Nc1ccccc1)c1nc(O)c2scc(-c3ccccn3)c2n1	1 to 25%

What value of inhibition at 20 µM has been recorded for this entry: Cc1c(-c2ccn(C(C)C)n2)sc2nc(-c3nccn3C)nc(NC[C@@H]3CCC(=O)N3)c12
51 to 75%

Which inhibition at 20 µM is listed for COc1cccc(Nc2nc(-c3nccn3C)nc3sc(-c4ccn(C(C)C)n4)c(C)c23)c1 ?
0%

Look up inhibition at 20 µM: COCCn1c(-c2nc(O)c3scc(-c4ccccn4)c3n2)nc2ccccc21
26 to 50%

What value of inhibition at 20 µM has been recorded for this entry: COc1cc(Nc2nc(-c3nccn3C)nc3sc(-c4ccn(C(C)C)n4)c(C)c23)ncn1
51 to 75%

Value lookup for inhibition at 20 µM; key = CO[C@H]1C[C@H](CNc2nc(-c3nccn3C)nc3sc(-c4ccn(C(C)C)n4)c(C)c23)C1
76 to 100%

Given the entry COc1cccn2c(-c3nc(O)c4scc(-c5ccccn5)c4n3)ncc12 , report its measured inhibition at 20 µM.
26 to 50%

Sample COCCNc1nc(-c2nccn2C)nc2sc(-c3ccn(C(C)C)n3)c(C)c12 — what was its inhibition at 20 µM?
76 to 100%

Entry under review: CO[C@@H]1CCCN(c2nc(-c3nccn3C)nc3sc(-c4ccn(C(C)C)n4)c(C)c23)C1 . Reported inhibition at 20 µM?
51 to 75%

# get_value(readout='inhibition at 20 µM', item= Cn1ccc(-c2nc(O)c3scc(-c4ccccn4)c3n2)n1 )
0%

If you can, please state the reported inhibition at 20 µM value of COCCn1ccnc1-c1nc(N[C@H]2C[C@@H](OC)C2)c2c(-c3ccccc3)c(-c3ccn(C)n3)sc2n1 .
76 to 100%

Field request: inhibition at 20 µM | item: Oc1nc(-c2cccnc2)nc2c(-c3ccccn3)csc12
0%

State the recorded inhibition at 20 µM for this entry: CO[C@H]1C[C@@H](Nc2nc(-c3nccn3C)nc3sc(-c4cn(C)cn4)c(-c4ccccc4)c23)C1
76 to 100%

I have this compound here, CO[C@@H]1CC[C@@H](Nc2nc(-c3nccn3C)nc3sc(-c4ccn(C(C)C)n4)c(C)c23)C1 (racemic) , and I need its recorded inhibition at 20 µM.
76 to 100%

Quick one: inhibition at 20 µM for COCCCn1ccnc1-c1nc(O)c2scc(-c3ccccn3)c2n1 ?
76 to 100%

Given the compound CO[C@H]1CCCN(c2nc(-c3nccn3C)nc3sc(-c4ccn(C(C)C)n4)c(C)c23)C1 , what is its reported inhibition at 20 µM?
51 to 75%

----------
Target: Rac-1 (Homo sapiens, UniProt P63000)
Assay: Ras GTP binding domain inhibition assay (labeled-GTP competition, cell-free)
Parameters: made in house
Settings: with SOS, read-out: Rac-1 + SOS: % inh.
RECORDED ENDPOINT: inhibition at 20 µM

COMPOUND	VALUE
Cc1sc2c(O)nc(-c3ccccn3)nc2c1-c1ccccn1 [Compound 26]	76 to 100%
COCCNC(=O)c1nc(N[C@@H]2CC[C@H](OC)C2)c2ccsc2n1 (racemic) [Compound 14]	0%
CO[C@H]1C[C@H](CNc2nc(-c3nccn3C)nc3sc(-c4ccn(C(C)C)n4)c(C)c23)C1 [Compound 48]	26 to 50%
Cn1ccnc1-c1nc(O)c2scc(-c3ncccc3F)c2n1 [Compound 30]	51 to 75%

For CO[C@H]1C[C@@H](Nc2nc(-c3nccn3C)nc3sc(-c4ccn(C(C)C)n4)c(C)c23)C[C@H]1OC [Compound 42] , what is its reported inhibition at 20 µM?
51 to 75%

I am curious: what inhibition at 20 µM value has been reported for CO[C@H]1CC[C@@H](Nc2nc(-c3nccn3C)nc3sccc23)C1 (racemic) [Compound 10] ?
76 to 100%

What does the data say about its inhibition at 20 µM? Entry: CO[C@H]1CC[C@@H](Nc2nc(-c3nccn3C)nc3sc(-c4cn(C)cn4)c(-c4ccccc4)c23)C1 (racemic) [Example 3]
76 to 100%

Give its inhibition at 20 µM value. Item: CO[C@H]1C[C@@H](CNc2nc(-c3nccn3C)nc3sc(-c4ccn(C(C)C)n4)c(C)c23)C1 [Compound 47]
51 to 75%

----------
Biological target: UniProtKB P61586
Assay: Ras GTP binding domain inhibition assay (labeled-GTP competition, cell-free)
Design: made in house
Details: without SOS, read-out: Rho-A: % inh.
RECORDED ENDPOINT: inhibition at 20 µM

// below: answered compounds
COMPOUND	TARGET UNDER TEST	inhibition at 20 µM
CO[C@H]1CC[C@@H](Nc2nc(C(=O)N3CCCC3)nc3sccc23)C1 (racemic)	UniProtKB P61586	0%
COCC1CCN(c2nc(-c3nccn3C)nc3sc(-c4ccn(C(C)C)n4)c(-c4ccccc4)c23)C1 (racemic)	UniProtKB P61586	26 to 50%

Sample COCCNC(=O)c1nc(O)c2scc(-c3ccccn3)c2n1 — what was its inhibition at 20 µM?
51 to 75%

What value of inhibition at 20 µM has been reported for the following compound? CO[C@H]1CC[C@@H](Nc2nc(C(=O)NC(C)C)nc3sccc23)C1 (racemic)
1 to 25%

----------
Molecular target: Rac-1 (Homo sapiens, UniProt P63000)
Test: Ras GTP binding domain inhibition assay (labeled-GTP competition, cell-free)
Parameters: made in house
Details: with SOS, read-out: Rac-1 + SOS: % inh.
RECORDED ENDPOINT: inhibition at 20 µM

Observe how each entry below is paired with its result.
COMPOUND	inhibition at 20 µM
COCCn1ccnc1-c1nc(N[C@@H]2CC[C@H](OC)C2)c2c(-c3ccccc3)c(-c3ccn(C)n3)sc2n1 (racemic)	76 to 100%
CO[C@H]1CC[C@@H](Nc2nc(C(N)=O)nc3sccc23)C1 (racemic)	0%
CO[C@H]1CC[C@@H](Nc2nc(-c3nccn3C)nc3sc(-c4cc[nH]n4)c(-c4ccccc4)c23)C1 (racemic)	1 to 25%
COCC1CCN(c2nc(-c3nccn3C)nc3sc(-c4ccn(C(C)C)n4)c(C)c23)C1 (racemic)	76 to 100%
CO[C@H]1CC[C@@H](Nc2nc(C(=O)N3CCOCC3)nc3sccc23)C1 (racemic)	1 to 25%
CO[C@H]1CC[C@@H](Nc2nc(C(=O)Nc3ccccc3)nc3sccc23)C1 (racemic)	0%

Shift focus to the following entry.
Dear colleague, I am looking for the recorded inhibition at 20 µM of the following compound: COCCn1ccnc1-c1nc(N[C@H]2C[C@@H](OC)C2)c2ccsc2n1
76 to 100%

----------
Molecular target: Rac-1 (Homo sapiens, UniProt P63000)
Test: Ras GTP binding domain inhibition assay (labeled-GTP competition, cell-free)
Parameters: made in house
Settings: with SOS, read-out: Rac-1 + SOS: % inh.
RECORDED ENDPOINT: inhibition at 20 µM

Examples with answers:
COMPOUND	RECORDED ENDPOINT	VALUE
O=C(c1nc(O)c2scc(-c3ccccn3)c2n1)N1CCOCC1	inhibition at 20 µM	1 to 25%
O=C(Nc1ccccc1)c1nc(O)c2scc(-c3ccccn3)c2n1	inhibition at 20 µM	1 to 25%
O=C(c1nc(O)c2scc(-c3ccccn3)c2n1)N1CCCC1	inhibition at 20 µM	1 to 25%
COCCCNc1nc(-c2nccn2C)nc2sc(-c3ccn(C(C)C)n3)c(C)c12	inhibition at 20 µM	76 to 100%
CO[C@H]1CC[C@@H](Nc2nc(-c3nccn3C)nc3sc(-c4ccn(C(C)C)n4)c(-c4ccccc4)c23)C1	inhibition at 20 µM	26 to 50%
CO[C@H]1CC(Nc2nc(-c3nccn3C)nc3sc(-c4ccn(C(C)C)n4)c(C)c23)C[C@@H]1OC (racemic)	inhibition at 20 µM	76 to 100%

Give the measured inhibition at 20 µM of Oc1nc(-c2ccccn2)nc2c(-c3ncccc3F)csc12 .
76 to 100%

May I ask what inhibition at 20 µM has been recorded for CO[C@@H]1CC[C@H](Nc2nc(-c3nccn3C)nc3sc(-c4ccn(C(C)C)n4)c(C)c23)C1 ?
26 to 50%
